Origin of measurements: patent US20180044434A1

Give measured Kd for each item. Keep answers brief.
TEST TARGET: T1, full-length recombinant human PAD4 (human, UniProt Q9UM07 1-663)
T1 construct: Full-length recombinant; also called peptidylarginine deiminase 4
T1 sequence (Q9UM07 whole entry): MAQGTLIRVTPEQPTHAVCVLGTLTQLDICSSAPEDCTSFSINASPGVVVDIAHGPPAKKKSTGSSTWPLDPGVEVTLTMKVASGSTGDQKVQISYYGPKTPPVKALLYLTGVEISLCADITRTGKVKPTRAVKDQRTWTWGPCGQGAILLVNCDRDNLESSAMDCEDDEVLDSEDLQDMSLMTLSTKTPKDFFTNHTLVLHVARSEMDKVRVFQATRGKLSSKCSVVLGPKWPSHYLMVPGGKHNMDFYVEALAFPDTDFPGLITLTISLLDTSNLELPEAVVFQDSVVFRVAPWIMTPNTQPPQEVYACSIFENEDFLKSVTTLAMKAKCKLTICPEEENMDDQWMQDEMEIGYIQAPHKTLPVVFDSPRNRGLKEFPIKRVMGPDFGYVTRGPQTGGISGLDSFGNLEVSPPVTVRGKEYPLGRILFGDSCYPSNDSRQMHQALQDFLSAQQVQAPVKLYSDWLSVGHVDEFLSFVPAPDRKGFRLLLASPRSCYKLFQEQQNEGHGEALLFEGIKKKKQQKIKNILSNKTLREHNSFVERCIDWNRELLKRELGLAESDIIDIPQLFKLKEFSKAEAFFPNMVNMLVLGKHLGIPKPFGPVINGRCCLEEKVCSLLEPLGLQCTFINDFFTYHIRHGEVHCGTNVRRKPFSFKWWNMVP
TEST SUMMARY: SPR (Biacore T200), antibody captured, human PAD4 analyte
I only need the number, in nM, no unit after it.

Ask: Given the binder G8 (antibody, V domains shown, Chicken variable regions in a mouse chimeric antibody (IgG1); also called anti-PAD4 antibody G8) VH: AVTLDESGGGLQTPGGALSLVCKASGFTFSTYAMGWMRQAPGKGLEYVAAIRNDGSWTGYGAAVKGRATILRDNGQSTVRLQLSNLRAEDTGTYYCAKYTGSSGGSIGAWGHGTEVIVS VL: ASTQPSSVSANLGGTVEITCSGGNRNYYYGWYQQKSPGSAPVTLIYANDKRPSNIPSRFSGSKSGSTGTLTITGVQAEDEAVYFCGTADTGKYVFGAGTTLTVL , what is its reported Kd?
Result: 2.34

Ask: Returns the measured Kd for the input binder. Input: G6 (antibody, V domains shown, Chicken variable regions in a mouse chimeric antibody (IgG1); also called anti-PAD4 antibody G6) VH: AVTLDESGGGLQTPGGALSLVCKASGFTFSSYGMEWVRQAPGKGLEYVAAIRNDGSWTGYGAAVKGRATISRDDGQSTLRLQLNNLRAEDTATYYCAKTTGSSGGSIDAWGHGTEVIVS VL: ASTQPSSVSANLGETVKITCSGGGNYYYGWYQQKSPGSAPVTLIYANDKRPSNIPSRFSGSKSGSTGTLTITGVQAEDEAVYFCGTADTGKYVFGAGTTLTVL
Result: 8.74

Ask: So what does the record say about Kd for H7 (antibody, V domains shown, Chicken variable regions in a mouse chimeric antibody (IgG1); also called anti-PAD4 antibody H7) VH: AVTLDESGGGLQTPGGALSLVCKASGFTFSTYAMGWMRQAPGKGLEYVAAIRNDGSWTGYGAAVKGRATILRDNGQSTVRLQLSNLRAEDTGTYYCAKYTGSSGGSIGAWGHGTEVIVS VL: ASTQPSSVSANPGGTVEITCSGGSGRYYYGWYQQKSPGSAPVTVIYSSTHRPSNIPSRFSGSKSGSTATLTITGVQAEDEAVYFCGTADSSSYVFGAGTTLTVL ?
Result: 7.56
